Molecular target: IL-17A and IL-17ARA (IL-17A receptor subunit) interaction (Homo sapiens)
Sequence (Q96F46 33-320 limits assumed): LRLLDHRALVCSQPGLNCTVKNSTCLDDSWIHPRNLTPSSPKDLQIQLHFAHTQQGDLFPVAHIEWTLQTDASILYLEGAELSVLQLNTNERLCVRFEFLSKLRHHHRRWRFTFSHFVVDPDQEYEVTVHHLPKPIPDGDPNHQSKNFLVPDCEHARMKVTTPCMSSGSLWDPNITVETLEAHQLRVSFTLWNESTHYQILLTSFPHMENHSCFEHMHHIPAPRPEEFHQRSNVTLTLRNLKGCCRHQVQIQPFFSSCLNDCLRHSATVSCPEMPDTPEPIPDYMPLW
Assay: IL-17A binding to IL-17ARA inhibition
Conditions: read-out: IC50, inhibitory activity for IL-17A binding to IL-17ARA
Readout name: pIC50
On this scale, pIC50 is minus log10 of a concentration expressed in M (mol/L).

Ask | Lab note: need pIC50 for OC[C@H]1O[C@@H](Oc2cc3c(O)cc(O)cc3[o+]c2-c2ccc(O)c(O)c2)[C@H](O)[C@@H](O)[C@@H]1O [C3G, Cyanidin-3-glucoside] on IL-17A and IL-17ARA (IL-17A receptor subunit) interaction (Homo sapiens), anyone have it?
Reply | 5.16

Reference source: patent US20200397808A1
